- Read-out: C-C motif chemokine 2 (Homo sapiens)
- testMethodNotes: BSK_KF3CT_MCP1: BioMAP Diversity Plus: KF3CT Assay for Monocyte Chemoattractant Protein 1 (MCP1/CCL2) Biomarker Activity (AID 2283073)
- statedConditions: primary human keratinocytes with fibroblasts; actives raise or lower the signal
Calls of active or inactive are those of the source. The calls were made as follows: active = hit-call score of the fitted dose curve at least 0.9, where 1 is the maximum; inactive = score below 0.9.
Tick one outcome: active, inactive

# fetch the recorded call for CC(C)(C)C(O)(CCc1ccc(Cl)cc1)Cn1cncn1 (configuration not stated) here
inactive

# fetch the recorded call for c1ccc2c(c1)oc1ccccc12 here
inactive

# fetch the recorded call for ClCCOCCCl here
inactive

# fetch the recorded call for CN(C)c1ccccc1 here
inactive

# fetch the recorded call for CCCCC(CC)COC(=O)c1ccc(C(=O)OCC(CC)CCCC)c(C(=O)OCC(CC)CCCC)c1 (configuration not stated) here
inactive

# fetch the recorded call for CN(C)C(=O)Nc1ccc(Cl)cc1 here
inactive

# fetch the recorded call for C=CCc1ccc2c(c1)OCO2 here
inactive

# fetch the recorded call for CC(C)(O)c1cnn2c(-c3ccc(F)c(-c4c(F)cccc4C#N)c3)cnc2n1 here
inactive

# fetch the recorded call for CCOC(=O)[C@]1(c2ccccc2)Oc2ccccc2[C@@H]1N here
inactive

# fetch the recorded call for ClC1=C(Cl)C2(Cl)C3C(Cl)C=CC3C1(Cl)C2(Cl)Cl (configuration not stated) here
active

# fetch the recorded call for C[N+](C)(C)CC1CO1 (configuration not stated) here
inactive

# fetch the recorded call for CO[C@@H]1[C@H](OC(=O)NC(=O)CCl)CC[C@]2(CO2)[C@H]1[C@@]1(C)O[C@@H]1CC=C(C)C here
inactive

---

- Read-out: Glutathione S-Transferase (GSTA2), GSTA2 (gene 2939)
- testMethodNotes: LTEA_HepaRG_GSTA2: Life Technologies and Expression Analysis (LTEA) Assay for Glutathione S-Transferase (GSTA2) using HepaRG (AID 2283497)
- statedConditions: mRNA level, 48 h; actives raise or lower the signal
Activity calls are given as the source filed them. The calls were made as follows: active = hit-call score of the fitted dose curve at least 0.9, where 1 is the maximum; inactive = score below 0.9.
Tick one outcome: active, inactive

# fetch the recorded call for CN(C)c1ccccc1 here
inactive

# fetch the recorded call for CC(C)(C)C(O)(CCc1ccc(Cl)cc1)Cn1cncn1 (stereo unspecified) here
active

# fetch the recorded call for Brc1ccc(Oc2ccccc2)cc1 here
inactive

# fetch the recorded call for O=C(O)C1C2CCC(O2)C1C(=O)O (stereo unspecified) here
active

# fetch the recorded call for Nc1ccc(Oc2ccc(N)cc2)cc1 here
inactive

# fetch the recorded call for OCCCBr here
inactive

# fetch the recorded call for CCCCOC(=O)c1ccccc1C(=O)OCc1ccccc1 here
inactive

# fetch the recorded call for c1ccc(C2CO2)cc1 (stereo unspecified) here
inactive

# fetch the recorded call for CCC(C)c1ccc(O)cc1 (stereo unspecified) here
inactive

# fetch the recorded call for Cn1cc(-c2ccccc2)c(=O)c(-c2cccc(C(F)(F)F)c2)c1 here
inactive

# fetch the recorded call for c1ccc(NNc2ccccc2)cc1 here
inactive

# fetch the recorded call for Nc1ccc(N=Nc2ccccc2)cc1 here
active

# fetch the recorded call for [As]#[In] here
inactive

# fetch the recorded call for CC(C)(OOC(C)(C)c1ccccc1)c1ccccc1 here
inactive

# fetch the recorded call for CCOC(=O)[C@]1(c2ccccc2)Oc2ccccc2[C@@H]1N here
active

# fetch the recorded call for O=[N+]([O-])c1ccc(Oc2ccc(Cl)cc2Cl)cc1 here
inactive

---

- Read-out: Interleukin-8 (IL8), CXCL8 (gene 3576)
- testMethodNotes: BSK_LPS_IL8: BioMAP Diversity Plus: LPS Assay for Interleukin-8 (IL8) Biomarker Activity (AID 2283078)
- statedConditions: primary human HUVEC with PBMC; actives raise or lower the signal
Activity calls are given as the source filed them. Rule for the calls: active = hit-call score of the fitted dose curve at least 0.9, where 1 is the maximum; inactive = score below 0.9.
quantityKind: AC50

These recorded examples may help you get a feel for the data.
In [3]: df
Out[3]:
                  molecule    result
0    c1ccc2c(c1)oc1ccccc12  inactive
1  Nc1cc(Cl)cc(C(=O)O)c1Cl  inactive
2           Nc1ccc(Cl)cc1N  inactive
3   Nc1ccc(N=Nc2ccccc2)cc1  inactive
4  Nc1ccc(Cc2ccc(N)cc2)cc1  inactive

# context switch: different molecule, same AC50
State the recorded AC50 for this entry: C[C@]12C=CC3=C4CCC(=O)C=C4CC[C@H]3[C@@H]1CC[C@@H]2O
inactive

---

- testMethodNotes: Tanguay_ZF_120hpf_PIG_legacy: (Legacy) Oregon State University Tanguay Lab 120 Hour Post-fertilization zebrafish Assay for Pigmentation Malformation (AID 2283650);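 also: dechorionated Tropical 5D zebrafish embryos exposed singly from 6 to 120 hpf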
Inconclusive results are not listed. The source made the active and inactive calls. Rule for the calls: active = hit-call score of the fitted dose curve at least 0.9, where 1 is the maximum; inconclusive = response in the unintended direction; inactive = score below 0.9.
Tick one outcome: label 1 (active), label 0 (inactive)

# fetch the recorded call for CC(C)(O)c1cnn2c(-c3ccc(F)c(-c4c(F)cccc4C#N)c3)cnc2n1 here
label 0

# fetch the recorded call for CC(C)(C)C(O)(CCc1ccc(Cl)cc1)Cn1cncn1 (stereo not drawn) here
label 0

# fetch the recorded call for [Cl-].[Cl-].[Hg+2] here
label 1

# fetch the recorded call for Clc1ccc(Cl)c(Cl)c1 here
label 0

# fetch the recorded call for O=C(Oc1ccc(Br)cc1)N1CCN2CCC1CC2 here
label 0

# fetch the recorded call for Clc1ccc(C(c2ccc(Cl)cc2)C(Cl)(Cl)Cl)cc1 here
label 0

# fetch the recorded call for c1ccc2c(c1)-c1cccc3cccc-2c13 here
label 0

# fetch the recorded call for O=P(OCCCl)(OCCCl)OCCCl here
label 0

---

- Read-out: Cytochrome P450 (CYP2B6), CYP2B6 (gene 1555)
- testMethodNotes: LTEA_HepaRG_CYP2B6: Life Technologies and Expression Analysis (LTEA) Assay for Cytochrome P450 (CYP2B6) using HepaRG (AID 2283481)
- statedConditions: mRNA level, 48 h; actives raise or lower the signal
The source made the active and inactive calls. The calls were made as follows: active = hit-call score of the fitted dose curve at least 0.9, where 1 is the maximum; inactive = score below 0.9.
quantityKind: AC50

These recorded examples may help you get a feel for the data.
>>> print(df.to_string())
                                   compound            result
0                  Cc1cc(N=Nc2ccccc2C)ccc1N  5.08 µM (active)
1  CCCCC(CC)COC(=O)c1ccc(C(=O)OCC(CC)CCCC)c(C(=O)OCC(CC)CCCC)c1 (configuration not stated)          inactive
2  CCNS(=O)(=O)C(F)(F)C(F)(F)C(F)(F)C(F)(F)C(F)(F)C(F)(F)C(F)(F)C(F)(F)F          inactive
3  CCCCCCCCOC(=O)c1ccc(C(=O)OCCCCCCCC)c(C(=O)OCCCCCCCC)c1  22.4 µM (active)
4                     Brc1ccc(Oc2ccccc2)cc1  78.1 µM (active)
5  ClC1=C(Cl)[C@]2(Cl)[C@H]3[C@H]([C@@H]4C=C[C@H]3C4)[C@@]1(Cl)C2(Cl)Cl   2.2 µM (active)
6                                [O-][Cl+]O          inactive
7                             CN(C)c1ccccc1  33.4 µM (active)

State the recorded AC50 for this entry: O=C(O)C1C2CCC(O2)C1C(=O)O (configuration not stated)
77.7 µM (active)

State the recorded AC50 for this entry: CNC(=O)Oc1cccc2c1OC(C)(C)C2
3.94 µM (active)

State the recorded AC50 for this entry: Clc1ccccc1Cl
inactive

State the recorded AC50 for this entry: CCOC(=O)[C@]1(c2ccccc2)Oc2ccccc2[C@@H]1N
81.9 µM (active)

---

- Read-out: CYP2C8 (gene 1558)
- testMethodNotes: LTEA_HepaRG_CYP2C8: Life Technologies and Expression Analysis (LTEA) Assay for CYP2C8 using HepaRG (AID 2283483)
- statedConditions: mRNA level, 48 h; actives raise or lower the signal
The source made the active and inactive calls. The calls were made as follows: active = hit-call score of the fitted dose curve at least 0.9, where 1 is the maximum; inactive = score below 0.9.
quantityKind: AC50

These recorded examples may help you get a feel for the data.
>>> df
                                   compound  quantitykind            result
0                   Nc1cc(Cl)cc(C(=O)O)c1Cl          AC50          inactive
1                        [Cl-].[Cl-].[Hg+2]          AC50          inactive
2                                [O-][Cl+]O          AC50          inactive
3  ClC1=C(Cl)[C@]2(Cl)[C@H]3[C@H]([C@@H]4C=C[C@H]3C4)[C@@]1(Cl)C2(Cl)Cl          AC50  1.45 µM (active)
4                                 ClCCOCCCl          AC50          inactive

State the recorded AC50 for this entry: CCC[CH2][Sn]([Cl])([CH2]CCC)[CH2]CCC
2.42 µM (active)

---

- targetEntity: Nucleoli Translocation, AR (gene 367) (UniProt P10275)
- Sequence (P10275 whole entry, looked up): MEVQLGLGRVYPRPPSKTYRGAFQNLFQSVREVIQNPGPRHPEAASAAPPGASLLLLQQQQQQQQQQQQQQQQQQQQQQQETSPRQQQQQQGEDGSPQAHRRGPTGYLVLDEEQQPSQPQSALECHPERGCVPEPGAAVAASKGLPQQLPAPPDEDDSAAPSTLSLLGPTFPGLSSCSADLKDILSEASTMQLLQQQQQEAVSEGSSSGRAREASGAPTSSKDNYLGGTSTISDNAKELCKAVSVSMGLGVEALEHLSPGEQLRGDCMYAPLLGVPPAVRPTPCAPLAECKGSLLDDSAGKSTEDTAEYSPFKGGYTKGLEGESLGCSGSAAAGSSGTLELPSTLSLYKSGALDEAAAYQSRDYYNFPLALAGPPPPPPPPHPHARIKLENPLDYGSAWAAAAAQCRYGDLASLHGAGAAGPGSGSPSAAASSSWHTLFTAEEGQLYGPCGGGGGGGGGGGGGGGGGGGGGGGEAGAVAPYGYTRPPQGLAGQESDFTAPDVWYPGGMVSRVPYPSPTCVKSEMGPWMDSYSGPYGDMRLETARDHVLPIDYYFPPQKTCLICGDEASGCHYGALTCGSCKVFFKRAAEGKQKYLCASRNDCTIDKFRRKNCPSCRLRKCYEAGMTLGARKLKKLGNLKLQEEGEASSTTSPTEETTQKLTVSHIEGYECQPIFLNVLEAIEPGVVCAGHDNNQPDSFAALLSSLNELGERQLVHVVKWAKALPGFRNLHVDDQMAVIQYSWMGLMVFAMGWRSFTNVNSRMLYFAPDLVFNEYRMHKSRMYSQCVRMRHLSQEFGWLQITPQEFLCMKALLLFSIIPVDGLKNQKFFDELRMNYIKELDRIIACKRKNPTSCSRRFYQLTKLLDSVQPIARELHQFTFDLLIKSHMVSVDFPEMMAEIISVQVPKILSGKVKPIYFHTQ
- testMethodNotes: UPITT_HCI_U2OS_AR_TIF2_Nucleoli_Antagonist: University of Pittsburgh U2OS Androgen Receptor-Transcriptional Intermediary Factor 2 (AR-TIF2) Antagonism High Content Imaging Assay for Nucleoli Translocation (AID 2283997)
Results filed as inconclusive are left out. Calls of active or inactive are those of the source. The calls were made as follows: active = hit-call score of the fitted dose curve at least 0.9, where 1 is the maximum; inconclusive = response in the unintended direction; inactive = score below 0.9.
Tick one outcome: active, inactive

# fetch the recorded call for Nc1ccc(Cl)cc1N here
inactive

# fetch the recorded call for CCCCC(CC)COC(=O)c1ccc(C(=O)OCC(CC)CCCC)c(C(=O)OCC(CC)CCCC)c1 (stereo not drawn) here
inactive

# fetch the recorded call for CC(C)(O)c1cnn2c(-c3ccc(F)c(-c4c(F)cccc4C#N)c3)cnc2n1 here
inactive

# fetch the recorded call for CC(C)(OOC(C)(C)c1ccccc1)c1ccccc1 here
active

# fetch the recorded call for CNC(=O)Oc1cccc2c1OC(C)(C)C2 here
inactive

# fetch the recorded call for O=C(Nc1ccccc1)c1ccccc1I here
inactive

# fetch the recorded call for Cc1cc(N=Nc2ccccc2C)ccc1N here
active

# fetch the recorded call for Nc1ccc([N+](=O)[O-])cc1 here
inactive
